target: Succinate receptor 1 (Homo sapiens); assay: Antagonist activity at human SUCNR1 expressed in human CHEM1 cells incubated for 60 mins in presence of [35S]GTPgammaS by scintillation proximity assay
Sequence (Q9BXA5 whole entry): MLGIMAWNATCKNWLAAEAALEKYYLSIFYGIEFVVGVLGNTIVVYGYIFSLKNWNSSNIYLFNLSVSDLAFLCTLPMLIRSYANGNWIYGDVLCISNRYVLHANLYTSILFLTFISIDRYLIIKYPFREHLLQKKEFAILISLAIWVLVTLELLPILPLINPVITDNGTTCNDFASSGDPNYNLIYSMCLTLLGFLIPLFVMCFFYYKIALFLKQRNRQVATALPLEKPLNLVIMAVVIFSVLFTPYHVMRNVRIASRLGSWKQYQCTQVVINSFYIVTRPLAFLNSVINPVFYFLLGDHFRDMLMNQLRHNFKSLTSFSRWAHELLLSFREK
Assay readout: pIC50
Please express pIC50 as -log10 of the molar concentration.

Example results:
>  <Compound>
O=C(O)Cc1ccccc1NC(=O)c1cccc(-c2ccc(Cl)c(OC3CCCNC3)c2)c1 (stereo not given)

>  <pIC50>
6.28

$$$$
>  <Compound>
O=C(O)Cc1ccccc1NC(=O)c1cccc(-c2ccc(Cl)c(OC3CCNCC3)c2)c1

>  <pIC50>
6.85

$$$$

Look at this compound and give its reported pIC50. NCc1cc(-c2cccc(C(=O)Nc3ccccc3CC(=O)O)c2)ccc1Cl 6.52

Look at this compound and give its reported pIC50. O=C(O)CC(NC(=O)c1cccc(-c2ccc(Cl)cc2)c1)c1cccnc1 (stereo not given) 4.49

Look at this compound and give its reported pIC50. O=C(O)Cc1ccccc1NC(=O)c1cccc(-c2ccc(Cl)cc2)c1 5.89

Look at this compound and give its reported pIC50. O=C(O)C[C@H](NC(=O)c1cccc(-c2ccc(Cl)cc2)c1)c1cccnc1 4.92

Look at this compound and give its reported pIC50. NCc1cccc(-c2cccc(C(=O)Nc3ccccc3CC(=O)O)c2)c1 4.57

Look at this compound and give its reported pIC50. O=C(Nc1ccccc1C(=O)O)c1cccc(-c2ccc(Cl)cc2)c1 4.64

Look at this compound and give its reported pIC50. O=C(O)Cc1cc(F)ccc1NC(=O)c1cccc(-c2cc(O[C@@H]3CCCNC3)c(Cl)cc2F)c1F 7.06
